test system: Sprague Dawley rats Crl:CD; assay type: in vivo, rat; conditions: rat, in vivo, ip
Experimental Endpoint: Liver Inflammation

> print(dat)
                                   compound  experimental.endpoint  result
1                        c1ccccc1 [benzene]     Liver Inflammation      no
2                             CCO [ethanol]     Liver Inflammation      no
3  C=CCN1CC[C@]23c4c5ccc(O)c4O[C@H]2C(=O)CC[C@@]3(O)[C@H]1C5 [naloxone]     Liver Inflammation      no
4                    ClC(Cl)Cl [chloroform]     Liver Inflammation      no
